assayedTarget: Nuclear receptor subfamily 2 group E member 1 (Homo sapiens, UniProt Q9Y466)
Sequence (Q9Y466 whole entry, the tested form may be a part): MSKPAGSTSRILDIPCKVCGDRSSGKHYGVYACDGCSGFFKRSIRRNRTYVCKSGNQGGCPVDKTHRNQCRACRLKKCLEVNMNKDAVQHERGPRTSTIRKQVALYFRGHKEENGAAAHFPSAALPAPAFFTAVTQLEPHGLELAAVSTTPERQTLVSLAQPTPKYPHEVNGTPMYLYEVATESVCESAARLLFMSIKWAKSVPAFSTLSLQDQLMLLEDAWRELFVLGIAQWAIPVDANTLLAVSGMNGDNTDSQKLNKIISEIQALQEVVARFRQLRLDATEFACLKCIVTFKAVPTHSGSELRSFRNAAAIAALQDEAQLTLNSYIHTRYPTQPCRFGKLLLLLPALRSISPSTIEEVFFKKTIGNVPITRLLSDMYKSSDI
protocol: Inverse agonist activity at full length TLX activating element expressed in human HEK293T cells coexpressing human full-length TLX/Gal4-VP 16 assessed as fold […] in reporter activity at 100 uM by luciferase reporter gene assay relative to control
Format: cell-based
protocolConditions: filed as inverse agonist
fold change (FC) for assorted compounds
Reply with just the number.

Check out these entries, answers already filled in.
| compound | fold change (FC) |
| --- | --- |
| CNC(=O)c1cc(Cl)c(N)cc1OC | 1.05 |
| COc1ccc2[nH]c(SC)nc2c1 | 1.33 |
| NCC(O)COc1cccc2ccccc12 (stereo not drawn) | 2.3 |
| NC1CCc2[nH]c3ccccc3c2C1 (stereo not drawn) | 2.1 |
| Cn1c(=O)[nH]c2[nH]cnc2c1=O | 1.47 |
| Nc1cnc2ccccc2n1 | 1.8 |
| O=C1Nc2ccccc2Nc2ccccc21 | 1.12 |

Now examine the next entry.
Need fold change (FC) of c1ccc2c3c([nH]c2c1)CNCC3 [TRYPTOLINE] , thanks.
2.2

====

assayedTarget: Nuclear receptor subfamily 2 group E member 1 (Homo sapiens)
protocol: Agonist activity at TAE expressed in human HEK293T cells coexpressing human full-length TLX/Gal4-VP 16 assessed as renilla luciferase reporter activity incubated for 14 hrs by Dual-glo luciferase
pEC50 for assorted compounds
# pEC50 = -log10(concentration in molar units)

| compound | assayedTarget | pEC50 |
| --- | --- | --- |
| CC(C)NCC(O)COc1cccc2ccccc12 (racemic) | Nuclear receptor subfamily 2 group E member 1 (Homo sapiens) | 4.43 |

Now examine the next entry.
Need pEC50 of NCC(O)COc1cccc2ccccc12 (centres undefined) , thanks.
4.37

====

assayedTarget: UniProt Q9Y466
protocol: Agonist activity at full length TLX activating element expressed in human HEK293T cells coexpressing human full-length TLX/Gal4-VP 16 assessed as fold increase in reporter activity at 100 uM by luciferase reporter gene assay relative to control
Assay type: cell-based
protocolConditions: filed as agonist
fold change (FC) for assorted compounds

| compound | fold change (FC) |
| --- | --- |
| c1ccc2c3c([nH]c2c1)CNCC3 | 2.15 |
| CC(=O)N1CCN(c2ccc(O)cc2)CC1 | 0.86 |
| O=C(O)CCCc1ccc(-c2ccccc2)cc1 | 0.41 |
| NC1CCc2[nH]c3ccccc3c2C1 (stereo not drawn) | 1.98 |
| O=c1[nH]nc(Cc2ccccc2)c2ccccc12 | 0.57 |
| Cc1cn(-c2cc(N)cc(C(F)(F)F)c2)cn1 | 0.65 |
| Clc1ccc(C(c2ccccc2)N2CCNCC2)cc1 (stereo not drawn) | 0.57 |

Now examine the next entry.
Which fold change (FC) is reported with UniProt Q9Y466 for this entry: CCCCOc1cc(C(=O)NC)c2ccccc2n1 ?
0.68

====

assayedTarget: Nuclear receptor subfamily 2 group E member 1 (Homo sapiens, UniProt Q9Y466)
protocol: Agonist activity at in human TLX LBD expressed in human HEK293T cells coexpressing Gal4-VP 16 assessed as fold […] in reporter activity at 100 uM measured after 14 hrs by luciferase reporter gene assay relative to control
Format: cell-based
protocolConditions: filed as agonist
observable: fold change (FC)
Reply with just the number.

Check out these entries, answers already filled in.
| compound | fold change (FC) |
| --- | --- |
| NC1CCc2[nH]c3ccccc3c2C1 (stereo not drawn) | 0.45 |
| CC(=O)N1CCN(c2ccc(O)cc2)CC1 | 0.5 |
| c1ccc2c3c([nH]c2c1)CNCC3 [TRYPTOLINE] | 0.47 |
| O=C1Nc2ccccc2Nc2ccccc21 | 0.47 |
| NCC(O)COc1cccc2ccccc12 (stereo not drawn) | 0.27 |

Now examine the next entry.
Need fold change (FC) of O=C(O)CCCc1ccc(-c2ccccc2)cc1 , thanks.
0.34
